- assayTarget: Voltage-gated inwardly rectifying potassium channel KCNH2 (Homo sapiens)
- Sequence (Q12809 whole entry): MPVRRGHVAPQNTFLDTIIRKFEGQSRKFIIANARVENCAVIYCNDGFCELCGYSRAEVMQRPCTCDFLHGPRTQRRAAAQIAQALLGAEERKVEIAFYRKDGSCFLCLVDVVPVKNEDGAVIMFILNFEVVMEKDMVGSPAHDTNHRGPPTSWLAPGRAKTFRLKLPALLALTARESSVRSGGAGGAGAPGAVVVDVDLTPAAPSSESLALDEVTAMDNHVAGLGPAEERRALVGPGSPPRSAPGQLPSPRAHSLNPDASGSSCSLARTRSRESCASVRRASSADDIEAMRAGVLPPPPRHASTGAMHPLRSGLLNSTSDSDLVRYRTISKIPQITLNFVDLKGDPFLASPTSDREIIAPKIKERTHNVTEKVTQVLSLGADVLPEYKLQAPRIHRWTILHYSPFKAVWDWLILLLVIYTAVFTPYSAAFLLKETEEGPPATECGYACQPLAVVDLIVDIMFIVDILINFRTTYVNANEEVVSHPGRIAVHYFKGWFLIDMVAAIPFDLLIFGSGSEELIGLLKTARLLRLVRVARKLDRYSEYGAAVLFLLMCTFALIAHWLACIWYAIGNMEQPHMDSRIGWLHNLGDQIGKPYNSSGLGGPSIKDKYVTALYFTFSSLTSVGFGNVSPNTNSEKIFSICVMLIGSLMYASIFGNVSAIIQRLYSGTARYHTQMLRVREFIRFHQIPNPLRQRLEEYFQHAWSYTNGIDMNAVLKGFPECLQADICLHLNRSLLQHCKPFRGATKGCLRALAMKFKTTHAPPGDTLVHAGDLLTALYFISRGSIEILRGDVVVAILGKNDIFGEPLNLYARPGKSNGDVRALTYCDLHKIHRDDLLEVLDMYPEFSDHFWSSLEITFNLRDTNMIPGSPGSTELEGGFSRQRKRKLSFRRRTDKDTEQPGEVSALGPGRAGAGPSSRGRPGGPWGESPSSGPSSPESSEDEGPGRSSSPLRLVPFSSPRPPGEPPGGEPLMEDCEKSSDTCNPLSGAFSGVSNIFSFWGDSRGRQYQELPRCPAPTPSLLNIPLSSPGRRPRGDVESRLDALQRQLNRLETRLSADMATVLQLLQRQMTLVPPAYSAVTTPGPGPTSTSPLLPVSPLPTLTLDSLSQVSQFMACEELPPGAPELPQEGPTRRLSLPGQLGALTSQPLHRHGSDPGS
- method: Inhibition of human ERG by automated planar patch-clamp system
readoutType: pIC50
Reminder that pIC50 means the negative base-10 logarithm of the concentration expressed in mol/L.

# query: pIC50 of entry CCOC(=O)N1CCC(CN2CCC3(CC2)OC(=O)N(C)c2ncccc23)CC1
5.83

Query: pIC50; subject: CCOC(=O)N1CCC(CN2CCC3(CC2)CC(=O)N(C)c2ncccc23)CC1
5.60

Which pIC50 is reported for this compound? CCCN1C(=O)CC2(CCN(CC3CCN(C(=O)OCC)CC3)CC2)c2cccnc21
6.17

Return reported pIC50; argument: CCOC(=O)N1CCC(CN2CCC3(CC2)CC(=O)Nc2ncccc23)CC1
5.55

###

- assayTarget: Muscarinic acetylcholine receptor M2 (Homo sapiens) (UniProt P08172)
- method: Agonist activity at human muscarinic M2 receptor expressed in CHO cells assessed as calcium mobilization at 10 uM by FLIPR assay relative to control
- Format: functional, cell-based
Answer each item with its documented Efficacy.
Form entry: value (%) — number only.

Quick one: Efficacy of CCOC(=O)N1CCC(CN2CCC3(CC2)CC(=O)Nc2ncccc23)CC1 ?
75

Which Efficacy is listed for CCOC(=O)N1CCC(CN2CCC3(CC2)OC(=O)Nc2ncccc23)CC1 ?
51

Could you tell me which Efficacy is on file for CCCN1C(=O)CC2(CCN(CC3CCN(C(=O)OCC)CC3)CC2)c2cccnc21 ?
54

Give the measured Efficacy of CCOC(=O)N1CCC(CN2CCC3(CC2)OC(=O)N(C)c2ccccc23)CC1 .
28

Any idea what its Efficacy is? The compound is CCOC(=O)N1CCC(CN2CCC3(CC2)CC(=O)N(C)c2ncccc23)CC1
29

What does the data say about its Efficacy? Entry: CCOC(=O)N1CCC(CN2CCC3(CC2)OC(=O)N(C)c2ncccc23)CC1
18

Requested read-out: Efficacy. Entry: CCOC(=O)N1CCC(CN2CCC3(CC2)CC(=O)N(CC)c2ncccc23)CC1
27

###

- assayTarget: Muscarinic acetylcholine receptor M2 (Homo sapiens) (UniProt P08172)
- Sequence (whole entry): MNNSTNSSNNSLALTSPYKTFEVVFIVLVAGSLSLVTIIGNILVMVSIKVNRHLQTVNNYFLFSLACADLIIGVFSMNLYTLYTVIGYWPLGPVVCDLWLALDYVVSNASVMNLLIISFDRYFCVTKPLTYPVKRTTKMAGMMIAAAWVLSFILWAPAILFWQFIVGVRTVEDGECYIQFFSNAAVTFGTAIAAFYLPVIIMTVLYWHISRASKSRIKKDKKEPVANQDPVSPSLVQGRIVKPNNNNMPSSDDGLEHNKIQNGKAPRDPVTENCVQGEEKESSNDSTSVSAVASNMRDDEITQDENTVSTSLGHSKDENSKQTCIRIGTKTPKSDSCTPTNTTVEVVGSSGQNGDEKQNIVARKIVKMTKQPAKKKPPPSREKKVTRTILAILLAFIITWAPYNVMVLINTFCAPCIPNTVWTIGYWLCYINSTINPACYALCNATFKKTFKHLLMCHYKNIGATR
- method: Agonist activity at human muscarinic M2 receptor expressed in CHO cells assessed as calcium mobilization at 1 uM by FLIPR assay relative to control
- Type: functional, cell-based
For each of the compounds below, state its Efficacy.

State the recorded Efficacy for this entry: CCOC(=O)N1CCC(CN2CCC3(CC2)OC(=O)N(C)c2ccccc23)CC1
27%

Item CCCN1C(=O)CC2(CCN(CC3CCN(C(=O)OCC)CC3)CC2)c2cccnc21 has what recorded Efficacy?
49%

Given CCOC(=O)N1CCC(CN2CCC3(CC2)OC(=O)Nc2ncccc23)CC1 , state its recorded Efficacy.
46%

Given CCOC(=O)N1CCC(CN2CCC3(CC2)OC(=O)N(C)c2ncccc23)CC1 , state its recorded Efficacy.
12%

Consider the compound shown here: CCOC(=O)N1CCC(CN2CCC3(CC2)CC(=O)N(CC)c2ncccc23)CC1 What is its recorded Efficacy?
20%

Which Efficacy is listed for CCOC(=O)N1CCC(CN2CCC3(CC2)CC(=O)Nc2ncccc23)CC1 ?
66%

# query: Efficacy of entry CCOC(=O)N1CCC(CN2CCC3(CC2)CC(=O)N(C)c2ncccc23)CC1
26%
